These entries and their values trace back to PubChem BioAssay (NCI).

Test system: SNB-75 CNS
ASSAY_METHOD_TEXT: NCI tumour cell line growth inhibition, 48 h
Some compounds, each annotated with its measured TGI.
OBSERVATION_TYPE: TGI

> print(dat)
                                   compound  observation.type  assay.value
1           Cc1ccc(C2=Nc3ccccc3NC(=O)C2)cc1               TGI     > 100 µM
2  CCOC(=O)c1ccc(Nc2nc3ccc(C(F)(F)F)cc3nc2-c2ccccc2)cc1               TGI     > 100 µM
3  C/C(=C1/N=C(c2cc([N+](=O)[O-])ccc2Cl)N(C2=CC=C(Cl)CC2)C1=O)c1cc2ccccc2oc1=O               TGI     > 100 µM
4  Cc1ccc(NC2=C(Sc3ccc(Cl)cc3)C(=O)N(Cc3ccccc3)C2=O)cc1Cl               TGI      19.4 µM
5  COc1cccc2c1C(=O)c1ccc3cc(CO)cc(O)c3c1C2=O               TGI       9.4 µM
6  CC1OC(OC2C(Oc3cc(O)c4c(=O)cc(-c5ccc(O)cc5)oc4c3)OC(CO)C(O)C2O)C(O)C(O)C1O (centres undefined)               TGI     > 100 µM
7  C=CCOc1ccc(C2c3c([nH][nH]c3=O)CC(C)(O)C2C(=O)OC)cc1OC (centres undefined)               TGI     > 100 µM
8  CO/N=C1/C(n2[nH]c(=O)n(-c3ccccc3)c2=O)C2C=CC1n1c(=O)n(-c3ccccc3)c(=O)n12 (centres undefined)               TGI     > 100 µM
9  CN1CCN(Cc2ccc(NC(=O)c3[nH]ncc3Nc3ncnc4c3CCC4)cc2)CC1               TGI       3.2 µM
